# System: HCT-116 colon
# Assay explanation: NCI-60 one-dose screen, 48 h
# Measurement parameters: 10 µM unless noted
Compounds without any hit were thinned out: in the full panel of roughly 83,000, 20% have a hit. Activity calls are given as the source filed them. Rule for the calls: active = growth percent below 10; inactive = the rest.
Give your call using only these classes: TRUE for active, FALSE for inactive

Fill in: this test's call for C[C@H]1C(=O)C23CCC1C[C@@]21O[C@@H]2C(C)(C)C=CC(=O)C23COC1=O is ___
FALSE

Fill in: this test's call for CCCCCCCCCCCCCCNc1nc(CO)ncc1-c1ccc(C(F)(F)F)cc1 is ___
FALSE

Fill in: this test's call for O=C1C=CC(=O)N1CCCCCCCCCCN1C(=O)C=CC1=O is ___
FALSE

Fill in: this test's call for Fc1ccccc1Nc1ccc2nnc(-c3ccncc3)n2n1 is ___
FALSE

Fill in: this test's call for Cc1ccc(S(=O)(=O)N2C/C(=C\c3cc(F)cc(F)c3)C(=O)/C(=C/c3cc(F)cc(F)c3)C2)cc1 is ___
TRUE

Fill in: this test's call for O=C1c2[nH]cc(CN[C@@H]3CCCN3)c2C(=O)c2c1c(O)c1ccccc1c2O is ___
TRUE

Fill in: this test's call for Cn1c2c(cc(S(=O)(=O)c3ccccc3)c1=O)CCc1c-2cnn1-c1cccc(Cl)c1 is ___
FALSE

Fill in: this test's call for CCCCCCCC/C=C\CCCCCCCCOc1cccc(CC(=O)NCC[N+](C)(C)C)c1 is ___
FALSE

Fill in: this test's call for CCCCOC(=O)C1OC(Oc2ccc3c(C)cc(=O)oc3c2)[C@@H](OC(C)=O)C(OC(C)=O)C1OC(C)=O (some centres undefined) is ___
FALSE
